- measurement_description: Oral bioavailability in Sprague-Dawley rat at 15 mg/kg, po
- Type: ADME, organism-based
- condition_notes: in vivo
reported_property: bioavailability (%)
All answers are understood in %, so give the number only.

Exam item: Fill in the blank: the reported bioavailability of C=C[C@]12OC(=O)N(CCCCn3cnc(-c4ccc(Cl)nc4)c3)[C@@H]1[C@@H](C)C(=O)[C@H](C)C[C@@](C)(OC)[C@H](O[C@@H]1O[C@H](C)C[C@H](N(C)C)[C@H]1O)[C@@H](C)C(=O)[C@@H](C)C(=O)O[C@@H]2CC is ____.
Marked response: 26

Exam item: Fill in the blank: the reported bioavailability of C=C[C@]12OC(=O)N(CCCCn3cnc(-c4ccc(C)nc4)c3)[C@@H]1[C@@H](C)C(=O)[C@H](C)C[C@@](C)(OC)[C@H](O[C@@H]1O[C@H](C)C[C@H](N(C)C)[C@H]1O)[C@@H](C)C(=O)[C@@H](C)C(=O)O[C@@H]2CC is ____.
Marked response: 35

====

Assignment: determine reported MIC for the given compounds.
- Test system: Streptococcus pneumoniae
- measurement_description: Antibacterial activity against Streptococcus pneumoniae Mef S 3427
- Assay type: functional
All answers are understood in µg/mL, so give the number only.

Exam item: Fill in the blank: the reported MIC of C=C[C@]12OC(=O)N(CCCCn3cnc(-c4ccc(O)nc4)c3)[C@@H]1[C@@H](C)C(=O)[C@H](C)C[C@@](C)(OC)[C@H](O[C@@H]1O[C@H](C)C[C@H](N(C)C)[C@H]1O)[C@@H](C)C(=O)[C@@H](C)C(=O)O[C@@H]2CC is ____.
Marked response: 1.56

Exam item: Fill in the blank: the reported MIC of C=C[C@]12OC(=O)N(CCCCn3cnc(-c4ccc(OC)nc4)c3C)[C@@H]1[C@@H](C)C(=O)[C@H](C)C[C@@](C)(OC)[C@H](O[C@@H]1O[C@H](C)C[C@H](N(C)C)[C@H]1O)[C@@H](C)C(=O)[C@@H](C)C(=O)O[C@@H]2CC is ____.
Marked response: 0.2

Exam item: Fill in the blank: the reported MIC of C=C[C@]12OC(=O)N(CCCCn3cnc(-c4cccnc4)c3)[C@@H]1[C@@H](C)C(=O)[C@H](C)C[C@@](C)(OC)[C@H](O[C@@H]1O[C@H](C)C[C@H](N(C)C)[C@H]1O)[C@@H](C)C(=O)[C@@H](C)C(=O)O[C@@H]2CC is ____.
Marked response: 0.1

Exam item: Fill in the blank: the reported MIC of CC[C@H]1OC(=O)[C@H](C)C(=O)[C@H](C)[C@@H](O[C@@H]2O[C@H](C)C[C@H](N(C)C)[C@H]2O)[C@](C)(OC)C[C@@H](C)C(=O)[C@H](C)[C@H]2N(CCCCn3cnc(-c4cccnc4)c3)C(=O)O[C@]12C [TELITHROMYCIN] is ____.
Marked response: 0.13

====

Assignment: determine reported MIC for the given compounds.
- Tested on: Streptococcus pneumoniae
- measurement_description: Antibacterial activity against Streptococcus pneumoniae Erm 6849
- Format: functional

Exam item: Fill in the blank: the reported MIC of C=C[C@]12OC(=O)N(CCCCn3cnc(-c4ccc(N(C)C)nc4)c3)[C@@H]1[C@@H](C)C(=O)[C@H](C)C[C@@](C)(OC)[C@H](O[C@@H]1O[C@H](C)C[C@H](N(C)C)[C@H]1O)[C@@H](C)C(=O)[C@@H](C)C(=O)O[C@@H]2CC is ____.
Marked response: 0.78 µg/mL

Exam item: Fill in the blank: the reported MIC of C=C[C@]12OC(=O)N(CCCC(C)(C)n3cnc4ncccc43)[C@@H]1[C@@H](C)C(=O)[C@H](C)C[C@@](C)(OC)[C@H](O[C@@H]1O[C@H](C)C[C@H](N(C)C)[C@H]1O)[C@@H](C)C(=O)[C@@H](C)C(=O)O[C@@H]2CC is ____.
Marked response: 0.1 µg/mL

Exam item: Fill in the blank: the reported MIC of C=C[C@]12OC(=O)N(CCCCn3cc(-c4ccc(Cl)nc4)nc3C)[C@@H]1[C@@H](C)C(=O)[C@H](C)C[C@@](C)(OC)[C@H](O[C@@H]1O[C@H](C)C[C@H](N(C)C)[C@H]1O)[C@@H](C)C(=O)[C@@H](C)C(=O)O[C@@H]2CC is ____.
Marked response: 0.4 µg/mL

Exam item: Fill in the blank: the reported MIC of C=C[C@]12OC(=O)N(CCCCn3cnc(-c4ccc(Cl)nc4)c3)[C@@H]1[C@@H](C)C(=O)[C@H](C)C[C@@](C)(OC)[C@H](O[C@@H]1O[C@H](C)C[C@H](N(C)C)[C@H]1O)[C@@H](C)C(=O)[C@@H](C)C(=O)O[C@@H]2CC is ____.
Marked response: 0.05 µg/mL

Exam item: Fill in the blank: the reported MIC of C=C[C@]12OC(=O)N(CCCCn3cnc(-c4cncnc4)c3)[C@@H]1[C@@H](C)C(=O)[C@H](C)C[C@@](C)(OC)[C@H](O[C@@H]1O[C@H](C)C[C@H](N(C)C)[C@H]1O)[C@@H](C)C(=O)[C@@H](C)C(=O)O[C@@H]2CC is ____.
Marked response: 0.2 µg/mL

Exam item: Fill in the blank: the reported MIC of C=C[C@]12OC(=O)N(CCN(C)Cc3ccnc(-c4cccnc4)c3)[C@@H]1[C@@H](C)C(=O)[C@H](C)C[C@@](C)(OC)[C@H](O[C@@H]1O[C@H](C)C[C@H](N(C)C)[C@H]1O)[C@@H](C)C(=O)[C@@H](C)C(=O)O[C@@H]2CC is ____.
Marked response: ≤ 0.05 µg/mL

Exam item: Fill in the blank: the reported MIC of C=C[C@]12OC(=O)N(CCCCn3ccc4ncccc43)[C@@H]1[C@@H](C)C(=O)[C@H](C)C[C@@](C)(OC)[C@H](O[C@@H]1O[C@H](C)C[C@H](N(C)C)[C@H]1O)[C@@H](C)C(=O)[C@@H](C)C(=O)O[C@@H]2CC is ____.
Marked response: 6.25 µg/mL

Exam item: Fill in the blank: the reported MIC of C=C[C@]12OC(=O)N(CCCCn3cnc(-c4cnccn4)c3)[C@@H]1[C@@H](C)C(=O)[C@H](C)C[C@@](C)(OC)[C@H](O[C@@H]1O[C@H](C)C[C@H](N(C)C)[C@H]1O)[C@@H](C)C(=O)[C@@H](C)C(=O)O[C@@H]2CC is ____.
Marked response: 0.2 µg/mL

Exam item: Fill in the blank: the reported MIC of C=C[C@]12OC(=O)N(CCCCc3cnc(-c4cccnc4)s3)[C@@H]1[C@@H](C)C(=O)[C@H](C)C[C@@](C)(OC)[C@H](O[C@@H]1O[C@H](C)C[C@H](N(C)C)[C@H]1O)[C@@H](C)C(=O)[C@@H](C)C(=O)O[C@@H]2CC is ____.
Marked response: 1.56 µg/mL

Exam item: Fill in the blank: the reported MIC of C=C[C@]12OC(=O)N(CCCCn3cnc4ncccc43)[C@@H]1[C@@H](C)C(=O)[C@H](C)C[C@@](C)(OC)[C@H](O[C@@H]1O[C@H](C)C[C@H](N(C)C)[C@H]1O)[C@@H](C)C(=O)[C@@H](C)C(=O)O[C@@H]2CC is ____.
Marked response: 3.13 µg/mL

Exam item: Fill in the blank: the reported MIC of CC[C@H]1OC(=O)[C@H](C)C(=O)[C@H](C)[C@@H](O[C@@H]2O[C@H](C)C[C@H](N(C)C)[C@H]2O)[C@](C)(OC)C[C@@H](C)C(=O)[C@H](C)[C@H]2N(CCCCn3cnc(-c4cccnc4)c3)C(=O)O[C@]12C [TELITHROMYCIN] is ____.
Marked response: 0.2 µg/mL

Exam item: Fill in the blank: the reported MIC of C=C[C@]12OC(=O)N(CCN(C)Cc3cnc(-c4cccnc4)s3)[C@@H]1[C@@H](C)C(=O)[C@H](C)C[C@@](C)(OC)[C@H](O[C@@H]1O[C@H](C)C[C@H](N(C)C)[C@H]1O)[C@@H](C)C(=O)[C@@H](C)C(=O)O[C@@H]2CC is ____.
Marked response: 0.78 µg/mL

====

- Tested on: Enterococcus faecalis
- measurement_description: Antibacterial activity against Enterococcus faecalis bc11148-2
- Assay type: functional
Assignment: determine reported MIC for the given molecules.
All answers are understood in µg/mL, so give the number only.

Exam item: What measured MIC is associated with C=C[C@]12OC(=O)N(CCCC(C)(C)n3cnc4ncccc43)[C@@H]1[C@@H](C)C(=O)[C@H](C)C[C@@](C)(OC)[C@H](O[C@@H]1O[C@H](C)C[C@H](N(C)C)[C@H]1O)[C@@H](C)C(=O)[C@@H](C)C(=O)O[C@@H]2CC on Enterococcus faecalis?
Marked response: 0.4

Exam item: What measured MIC is associated with C=C[C@]12OC(=O)N(CCCCn3cnc(-c4cnc(OC)nc4)c3)[C@@H]1[C@@H](C)C(=O)[C@H](C)C[C@@](C)(OC)[C@H](O[C@@H]1O[C@H](C)C[C@H](N(C)C)[C@H]1O)[C@@H](C)C(=O)[C@@H](C)C(=O)O[C@@H]2CC on Enterococcus faecalis?
Marked response: 0.4

Exam item: What measured MIC is associated with C=C[C@]12OC(=O)N(CCCCn3cnc(-c4ccc(Cl)nc4)c3)[C@@H]1[C@@H](C)C(=O)[C@H](C)C[C@@](C)(OC)[C@H](O[C@@H]1O[C@H](C)C[C@H](N(C)C)[C@H]1O)[C@@H](C)C(=O)[C@@H](C)C(=O)O[C@@H]2CC on Enterococcus faecalis?
Marked response: 0.1

Exam item: What measured MIC is associated with C=C[C@]12OC(=O)N(CCCCn3cc(-c4ccc(Cl)nc4)nc3C)[C@@H]1[C@@H](C)C(=O)[C@H](C)C[C@@](C)(OC)[C@H](O[C@@H]1O[C@H](C)C[C@H](N(C)C)[C@H]1O)[C@@H](C)C(=O)[C@@H](C)C(=O)O[C@@H]2CC on Enterococcus faecalis?
Marked response: 3.13

Exam item: What measured MIC is associated with C=C[C@]12OC(=O)N(CCN(C)Cc3cnc(-c4cccnc4)s3)[C@@H]1[C@@H](C)C(=O)[C@H](C)C[C@@](C)(OC)[C@H](O[C@@H]1O[C@H](C)C[C@H](N(C)C)[C@H]1O)[C@@H](C)C(=O)[C@@H](C)C(=O)O[C@@H]2CC on Enterococcus faecalis?
Marked response: 0.4

Exam item: What measured MIC is associated with C=C[C@]12OC(=O)N(CCCCn3ccc4ncccc43)[C@@H]1[C@@H](C)C(=O)[C@H](C)C[C@@](C)(OC)[C@H](O[C@@H]1O[C@H](C)C[C@H](N(C)C)[C@H]1O)[C@@H](C)C(=O)[C@@H](C)C(=O)O[C@@H]2CC on Enterococcus faecalis?
Marked response: 3.13

Exam item: What measured MIC is associated with C=C[C@]12OC(=O)N(CCN(C)Cc3ccc(-c4cccnc4)s3)[C@@H]1[C@@H](C)C(=O)[C@H](C)C[C@@](C)(OC)[C@H](O[C@@H]1O[C@H](C)C[C@H](N(C)C)[C@H]1O)[C@@H](C)C(=O)[C@@H](C)C(=O)O[C@@H]2CC on Enterococcus faecalis?
Marked response: 0.4

Exam item: What measured MIC is associated with CC[C@H]1OC(=O)[C@H](C)C(=O)[C@H](C)[C@@H](O[C@@H]2O[C@H](C)C[C@H](N(C)C)[C@H]2O)[C@](C)(OC)C[C@@H](C)C(=O)[C@H](C)[C@H]2N(CCCCn3cnc(-c4cccnc4)c3)C(=O)O[C@]12C [TELITHROMYCIN] on Enterococcus faecalis?
Marked response: 0.4

src = ChEMBL document CHEMBL1138190
